# System: SNB-75
# experiment_summary: NCI60 five-dose screen
# Assay type: cell-based
# measurement_parameters: Homo sapiens; SNB-75, CNS cancer; read-out: LC50 (the source's name)
For each of the compounds below, state its CC50.
Numbers only, in µM.

O=C(N/N=C/c1ccc([N+](=O)[O-])[nH]1)c1[nH]c2ccc(Br)cc2c1-c1ccccc1 [Derivative 3p]	40.5
O=C(N/N=C/c1cc(Br)c(Br)[nH]1)c1[nH]c2ccc(Br)cc2c1-c1ccccc1 [Derivative 3f]	64.4

Note to self: CC50 recorded for CCc1cc[nH]c1/C=N/NC(=O)c1[nH]c2ccc(Br)cc2c1-c1ccccc1 [Derivative 3u] was 43.4
